# Test system: OVCAR-3
# protocol notes: NCI tumour cell line growth inhibition, 48 h
Activity calls are given as the source filed them. Rule as the data show it: active = GI50 up to about 1.1 µM and inactive = higher. Non-standard residues stand in square brackets, D forms with d. Residues, ends and D or L forms follow the SMILES beside them. ξ: configuration not given here. *: point of attachment. NMeF = CN[C@@H](Cc1ccccc1)C(=O)O; NMeV = CN[C@H](C(=O)O)C(C)C; ξNMeV = CNC(C(=O)O)C(C)C; Boc = CC(C)(C)OC(=O)*; OBn = c1ccc(CO*)cc1
Respond with a class label; see Yes = active, No = inactive

Sample answers from the record:
CC(C)C(C(=O)N(C)[C@H](C(=O)N1CCC[C@H]1C(=O)N(C)[C@@H](Cc1ccccc1)C(=O)OCc1ccccc1)C(C)C)N(C)C(=O)[C@@H](NC(=O)OC(C)(C)C)C(C)C (stereo partly drawn) (Boc-V[ξNMeV][NMeV]P[NMeF]-OBn)	No
COc1cc(C2SCC(=O)N2c2ccc(NC(C)=O)cc2)cc(OC)c1OC (stereo not drawn)	No
Cc1cc2c(ccc3c(C)cc(=O)oc32)o1	No

Give the logged outcome of this assay for the following compound: O=C1OC(=O)C2C1C1C(c3ccccc3)=C(c3ccccc3)C2(O)C2C(=O)OC(=O)C12 (stereo not drawn) No

What call does the record list for "CCOC(=O)c1csc(NC(=O)CCN2CCOCC2)n1" ? No
